biological target: AMP-activated protein kinase, AMPK (Homo sapiens) (UniProt P54646+O43741+P54619+Q9UGJ0+Q9Y478+Q13131+Q9UGI9); assay: AMP-dependent Kinase enzyme assay. An in vitro enzyme assay that detects ADP turnover that is directly proportional to AMPK activity. This uses naive AMPK that is activated during the assay with MK-8722; type: functional; design: scale not given: direction of the effect not stated beside the values; settings: 30 µM
Reported Percent Effect values for a set of compounds
Quantity: Percent Effect (%)

In [3]: df
Out[3]:
                                    compound  unit_abbrev  numeric_value
 0  O=S1(=O)C[C@@H]2[C@H](C1)N(Cc1cc(Cl)cc(Cl)c1)CCN2CC1CC1            %         -0.723
 1     COc1cc(/C=C/c2ncc(C(=O)O)s2)cc(Cl)c1O            %           50.5
 2      COc1ccc(-c2nc(CN3CCN(CCO)CC3)co2)cc1            %          -11.9
 3  CN(C)S(=O)(=O)c1ccc(CN2CCCC2c2ccccc2)o1 (centres undefined)            %           2.57
 4  Cc1ccc(-c2cc(CNC(=O)N3CCC(CO)CC3)on2)cc1            %            1.9
 5    Cc1cc(CN2CCN(C(=O)c3sccc3C(C)C)CC2)no1            %           4.01
 6  Cc1nc(C)n(C2CCCN(C(=O)COCc3ccccc3)C2)n1 (centres undefined)            %           25.2
 7  COCc1nc(C(=O)N2CCCC2c2c(C)nn(C)c2C)cs1 (centres undefined)            %           3.43
 8      CC(C)(NCC(=O)NCCC#N)c1ccc2c(c1)OCCO2            %          -8.79
 9  CC(C)N1CCOCC2(CN(Cc3ccco3)CCO2)C1 (centres undefined)            %           2.81
10     COc1ccc(C(=O)NCCc2nnc3ccccn23)c(OC)c1            %           5.94
11      CCn1c(Nc2ccccc2OC)nc2c(C)nn(C)c2c1=O            %           3.08
12  Cc1cnc(NC(=O)c2ccc(-n3ncc(C#N)c3N)cc2)s1            %           14.4
13             CCn1cc(N2Cc3nc(N)ncc3C2=O)cn1            %          -9.46
14         O=C(NCCCOCC1CC1)Nc1cccnc1N1CCOCC1            %          -5.79
15  O=C(c1ccc(C2CCCO2)s1)N1Cc2ccccc2C1 (centres undefined)            %          -1.29
16  Cc1ccc(CN2CCOC3(COCCN(CCN(C)C)C3)C2)o1 (centres undefined)            %           9.65
17  CC1c2ncc(COc3cccnc3)n2CCN1C(=O)C1=CCCC1 (centres undefined)            %         -0.286
18  Cn1cc(CN2C[C@@H]3COC[C@@H](C(=O)N4CCCCO4)[C@@H]3C2)cn1            %           9.23
19  Cc1ccc(NC2CCN(C(=O)Cc3ccc(C#N)cc3)CC2)nn1            %          -6.02
20  Cn1cc(N2CC3(CCN(CC4CCOCC4)CC3)OCC2=O)cn1            %           1.65
21  c1ccc(-c2nc(CNC3CCc4ncnn4C3)co2)cc1 (centres undefined)            %          -3.92
22  CC(=O)Nc1nc(C(=O)N2CCCC2Cn2cc(C)cn2)cs1 (centres undefined)            %           1.53
23      CCc1nnc2n1CCN(C(=O)c1cnc3ccccc3n1)C2            %          -7.62
